Molecular target: RORγ (UniProt P51449)
Construct: hRORg-LBD|aa259-518|NP_005051.2; hRORgt|aa1-497|NP_001001523 (RORg, t isoform, 497aa); mRORg-LBD|aa264-516|NP_035411
Sequence (P51449 1-518): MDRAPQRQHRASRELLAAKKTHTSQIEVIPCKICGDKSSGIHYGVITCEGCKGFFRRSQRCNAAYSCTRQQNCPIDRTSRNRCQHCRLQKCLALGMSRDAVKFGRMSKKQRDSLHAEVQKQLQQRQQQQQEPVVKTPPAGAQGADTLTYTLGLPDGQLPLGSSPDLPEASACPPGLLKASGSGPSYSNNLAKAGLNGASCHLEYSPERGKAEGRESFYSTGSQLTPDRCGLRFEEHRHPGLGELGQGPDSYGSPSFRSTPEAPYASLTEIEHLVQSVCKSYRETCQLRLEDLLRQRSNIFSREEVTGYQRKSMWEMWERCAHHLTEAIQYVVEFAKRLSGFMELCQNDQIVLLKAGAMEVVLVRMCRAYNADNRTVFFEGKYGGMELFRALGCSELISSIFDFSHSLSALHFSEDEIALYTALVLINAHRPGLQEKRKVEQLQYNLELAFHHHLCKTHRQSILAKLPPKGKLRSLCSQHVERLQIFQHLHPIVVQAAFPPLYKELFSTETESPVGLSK
Type: cell-based
Settings: firefly (FF) luciferase, 293T cells, 16 h
The following compounds are listed with their measured pIC50 (FF) values.

> print(dat)
                                   compound  observed
1  CC(C)(C)c1cc(-c2[nH]c(C(=O)NC3CCOCC3)cc2CC2CCCCC2)cc(C2(C)CC2)c1 [Example 12]       6.9
2  Cc1cc(-c2nc(C(N)=O)nn2CC2CCCCC2)cc(C(C)(C)C)c1O [Example 308]       6.0
3  Cc1c(S(=O)(=O)CC2CC2)cc(-c2cc(C(C)(C)C)cc(C(C)(C)C)c2)n1CC1CCCCC1 [Example 325]       6.1
4  CC(C)(C)c1cc(-c2nc(S(N)(=O)=O)nn2CC2CCCCC2)cc(C(C)(C)C)c1 [Example 309]     < 4.7

Now look at this one.
Which pIC50 (FF) value is on record for CC(C)(C)c1cc(-n2nc(C(N)=O)c(Cl)c2CC2CCCCC2)cc(C(C)(C)C)c1 [Example 313] ?
6.3

###

biological target: RORγ ligand binding domain (LBD) (Homo sapiens); assay: TR-FRET Activity Assay (ligand sensing assay, RORγ-LBD / coactivator peptide interaction)
The following compounds are listed with their measured pIC50 values.
The value called pIC50 is obtained by taking minus log10 of the concentration in mol/L.

> print(dat)
                                   compound  observed
1  CC(C)(C)NS(=O)(=O)c1ccc(-c2cc(C(=O)NC3CCOCC3)nn2CC2CCCCC2)cc1C(C)(C)C [100/2]      6.10
2  Cc1c(C(=O)N[C@H]2C[C@H](C(=O)O)C2)cn(-c2cc(C(C)(C)C)cc(C3(C)CC3)c2)c1CC1CCCCC1 [1/5]      6.00
3  Cc1c(C(=O)N[C@H]2C[C@H](C(=O)O)C2)cn(-c2ccc(S(=O)(=O)NC(C)(C)C)c(C(C)(C)C)c2)c1CC1CCCCC1 [Example 4/1]      5.90

What is its pIC50 for RORγ ligand binding domain (LBD) (Homo sapiens)? Entry: CC(C)(C)c1cc(-c2cc(C(N)=O)[nH]c2CC2CCCCC2)cc(C(C)(C)C)c1 [Example 303]
6.30

###

The following compounds are listed with their measured pIC50 (FF) values.
Molecular target: RORγ (UniProt P51449)
Construct: hRORg-LBD|aa259-518|NP_005051.2; hRORgt|aa1-497|NP_001001523 (RORg, t isoform, 497aa); mRORg-LBD|aa264-516|NP_035411
Sequence (P51449 1-518): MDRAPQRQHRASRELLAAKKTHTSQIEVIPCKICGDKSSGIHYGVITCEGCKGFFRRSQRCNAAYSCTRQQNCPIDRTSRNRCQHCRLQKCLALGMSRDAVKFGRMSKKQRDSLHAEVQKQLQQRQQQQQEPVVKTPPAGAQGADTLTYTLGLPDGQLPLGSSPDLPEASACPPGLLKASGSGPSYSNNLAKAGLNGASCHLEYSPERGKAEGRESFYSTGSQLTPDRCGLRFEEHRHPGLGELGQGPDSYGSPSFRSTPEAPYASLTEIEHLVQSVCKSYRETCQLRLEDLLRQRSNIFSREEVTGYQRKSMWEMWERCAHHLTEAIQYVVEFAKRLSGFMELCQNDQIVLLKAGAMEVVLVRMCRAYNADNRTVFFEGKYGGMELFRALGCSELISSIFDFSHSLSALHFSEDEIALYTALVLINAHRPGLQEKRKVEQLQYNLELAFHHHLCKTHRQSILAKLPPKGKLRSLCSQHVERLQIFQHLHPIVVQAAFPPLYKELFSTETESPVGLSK
Type: cell-based
Settings: firefly (FF) luciferase, 293T cells, 16 h
Output: the number by itself.

Below are worked cases with known answers.
> print(dat)
                               query.smiles  assay.readout  observed
1  Cn1c(C(=O)N[C@H]2C[C@H](C(=O)O)C2)cc(CC2CCCCC2)c1-c1cc(C(C)(C)C)cc(C2(C)CC2)c1     pIC50 (FF)       7.2
2  Cn1c(C(=O)NCCC(C)(C)C(=O)O)cc(-c2cc(C(C)(C)C)cc(C3(C)CC3)c2)c1CC1CCCCC1     pIC50 (FF)       7.4

Which pIC50 (FF) value is on record for CC(C)(O)c1cc(-c2cc(C(=O)N[C@H]3C[C@H](C(=O)O)C3)[nH]c2CC2CCCCC2)cc(C2(C)CC2)c1 ?
6.4

###

Biological target: RORγ (UniProt P51449)
Construct: hRORg-LBD|aa259-518|NP_005051.2; hRORgt|aa1-497|NP_001001523 (RORg, t isoform, 497aa); mRORg-LBD|aa264-516|NP_035411
Sequence (P51449 1-518): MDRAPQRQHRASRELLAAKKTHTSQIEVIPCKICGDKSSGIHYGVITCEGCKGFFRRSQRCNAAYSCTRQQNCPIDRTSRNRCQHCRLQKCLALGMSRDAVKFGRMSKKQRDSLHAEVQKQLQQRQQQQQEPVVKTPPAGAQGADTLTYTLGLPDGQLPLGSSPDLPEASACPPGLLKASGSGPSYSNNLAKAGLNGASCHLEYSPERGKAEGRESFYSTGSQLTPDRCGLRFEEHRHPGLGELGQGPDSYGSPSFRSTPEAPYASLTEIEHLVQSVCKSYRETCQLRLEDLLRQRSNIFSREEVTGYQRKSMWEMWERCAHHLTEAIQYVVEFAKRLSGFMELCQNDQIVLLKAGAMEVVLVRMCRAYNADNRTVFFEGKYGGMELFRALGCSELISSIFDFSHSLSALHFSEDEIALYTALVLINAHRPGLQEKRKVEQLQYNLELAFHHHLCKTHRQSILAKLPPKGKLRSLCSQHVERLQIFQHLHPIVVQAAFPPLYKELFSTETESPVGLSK
Format: cell-based
Settings: renilla normalised (RENnorm) luciferase, 293T cells, 16 h
ASSAY_READOUT: pIC50 (REN)

> print(dat)
                                   compound  observed
1  Cc1c(C(=O)NC2CCOCC2)cc(-c2ccc(S(=O)(=O)NC(C)(C)C)c(C(F)(F)F)c2)n1CC1CCCOC1 (stereo not shown)       6.3
2  CC(C)(O)c1cc(-c2cc(C(=O)N[C@H]3C[C@H](C(=O)O)C3)[nH]c2CC2CCCCC2)cc(C2(C)CC2)c1       6.3
3  CC(C)(C)NS(=O)(=O)c1ccc(-c2cc(C(=O)NC34CCC(C(=O)O)(CC3)CC4)nn2CC2CCCCC2)c(Cl)c1Cl       7.0

Which pIC50 (REN) value is on record for Cn1c(C(=O)NCC(C)(C)C(=O)O)cc(-c2cc(C(C)(C)C)cc(C3(C)CC3)c2)c1CC1CCCCC1 ?
7.6

###

The following compounds are listed with their measured IC50 values.
target: RORγ ligand binding domain (LBD) (Homo sapiens, UniProt P51449); assay: TR-FRET Activity Assay (ligand sensing assay, RORγ-LBD / coactivator peptide interaction)
Respond with the bare value in nM.

What is its IC50 for RORγ ligand binding domain (LBD) (Homo sapiens, UniProt P51449)? Entry: Cc1c(C(=O)NC2CCOCC2)cc(-c2ccc(S(=O)(=O)NC(C)(C)C)c(C(F)(F)F)c2)n1CC1CCCOC1 (centres unmarked)
794

What is its IC50 for RORγ ligand binding domain (LBD) (Homo sapiens, UniProt P51449)? Entry: CC(C)(C)c1cc(-c2nc(C(=O)NC3CC3)nn2CC2CCCCC2)cc(C(C)(C)C)c1
794

What is its IC50 for RORγ ligand binding domain (LBD) (Homo sapiens, UniProt P51449)? Entry: Cn1c(C(=O)N2CCC(C)(C(=O)O)CC2)cc(-c2cc(C(C)(C)C)cc(C3(C)CC3)c2)c1CC1CCCCC1
1580

What is its IC50 for RORγ ligand binding domain (LBD) (Homo sapiens, UniProt P51449)? Entry: Cc1c(C(=O)N[C@H]2C[C@H](C(=O)O)C2)cn(-c2cc(C(C)(C)C)cc(C3(C)CC3)c2)c1[S+]([O-])C1CCCCC1 (some centres unmarked)
2000

What is its IC50 for RORγ ligand binding domain (LBD) (Homo sapiens, UniProt P51449)? Entry: CC(C)(C)c1cc(-c2nc(C(N)=O)nn2CC2CCCCC2)cc(C(C)(C)C)c1O
794
